Record form. Attribute: koff. Fill in for each entry.
# system-name: T1, human PD-1 (human, UniProt Q15116 25-167)
# T1 construct: The immunogen was PD1/Fc (Leu25-Gln167 fused to human IgG1 Pro100-Lys330); also called huPD-1; hPD-1
# T1 sequence (Q15116 25-167 limits assumed): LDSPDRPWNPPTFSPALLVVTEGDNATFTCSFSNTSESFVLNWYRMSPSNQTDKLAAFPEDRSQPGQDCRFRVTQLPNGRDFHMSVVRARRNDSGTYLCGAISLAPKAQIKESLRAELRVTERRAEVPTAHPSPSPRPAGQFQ
# assay-explanation: SPR, multiple-cycle, crude Fab from E. coli; antigen form not stated
Only the number, expressed in s⁻¹, is required.

Query: Quick one: koff for chimeric Fab (Fab, V domains shown, Crude murine-human chimeric Fab from E. coli TG1, made with the HCVR and LCVR of PD1#3; Only the variable domains are tied to it) VH: EVQLVESGGDLVKPGGSLKLSCAASGFVFSRYDMAWVRQTPEKRLEWVAFISGGGSNTYYPDTVKGRFTISRDNAKNTLYLQMTSLKSEDTAVYYCISPYYYAMEYWGQGTSVTVSS VL: DIVMTQSHKFISTSVGDRVSITCKASQDVDTAVAWYQQKPGQSPKLLIHWASTRHTGVPDRFTGGGSGTDFTLTLSNVQSEDLADYFCQQYSTFPWTFGGGTRLEIK ?
Result: 0.00015

Query: Returns the measured koff for the input binder. Input: Fab 8 (Fab, V domains shown, Crude Fab from E. coli; also called PD1-BM VL-H49Y) VH: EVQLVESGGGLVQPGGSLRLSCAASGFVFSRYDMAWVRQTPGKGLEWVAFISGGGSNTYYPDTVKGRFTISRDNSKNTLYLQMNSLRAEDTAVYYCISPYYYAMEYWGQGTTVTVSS VL: DIQMTQSPSSISTSVGDRVTITCKASQDVDTAVAWYQQKPGKSPKLLIYWASTRHTGVPSRFSGSGSGTDFTLTLSSVQPEDLADYFCQQYSTFPWTFGGGTKLEIK
Result: 0.00019

Query: koff for Fab 14 (Fab, V domains shown, Crude Fab from E. coli; also called PD1-BM VL-L104V) VH: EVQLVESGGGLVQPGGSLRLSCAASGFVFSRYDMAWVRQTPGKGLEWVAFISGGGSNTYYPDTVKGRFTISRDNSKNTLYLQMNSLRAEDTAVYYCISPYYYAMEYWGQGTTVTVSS VL: DIQMTQSPSSISTSVGDRVTITCKASQDVDTAVAWYQQKPGKSPKLLIHWASTRHTGVPSRFSGSGSGTDFTLTLSSVQPEDLADYFCQQYSTFPWTFGGGTKVEIK ?
Result: 0.0002
